Measured values drawn from PubChem BioAssay (NCI) for this set.

tested on: OVCAR-5 ovarian; assay: NCI tumour cell line growth inhibition, 48 h; in the data active = GI50 below about 0.43 µM; inactive = the rest
The categories you may choose from are yes (1) for active, no (0) for inactive

-- ask Please state the recorded outcome for this compound: CCC(C)[C@H](NC(=O)Nc1cc(C(F)(F)F)cc(C(F)(F)F)c1)C(=O)N[C@@H](Cc1cn(C)cn1)C(=O)OC (stereo not given in full)
-- reply no (0)

-- ask Dear all, I need the recorded test outcome for CC(N)(Cc1c[nH]c2cccc(F)c12)C(=O)O (stereo not given) , thank you.
-- reply no (0)

-- ask Call for entry `COc1ncc(Nc2ncc([C@@H](C)N3CCN(S(C)(=O)=O)CC3)cc2-c2nc(C)nc(N)n2)cc1F` :
-- reply yes (1)

-- ask What is the recorded call for this compound in the test? `COc1ccc(-c2nc(-c3ccc(C)cc3)cn3ccnc23)cc1`
-- reply no (0)

-- ask Outcome logged for `CCOCCCn1c2c(c3c(O)cccc31)C(=O)c1ccccc1-2` in this assay:
-- reply no (0)
